Below: a set of entries, each annotated with reported pEC50.
# TARGET_DESC: human RXFP1 (Homo sapiens)
# Construct: expressed in transfected cells
# ASSAY_DETAILS: RXFP1 cAMP assay (hRXFP1 HEK293 cAMP assay, HTRF)
# Type: cell-based
# STUDY_CONDITIONS: HEK293 cells stably expressing human RXFP1, 30 min at room temperature, read-out: cAMP hRXFP1 HEK293 Assay EC50
Reminder that pEC50 means the negative base-10 logarithm of the concentration expressed in mol/L.

COc1ccc(-c2ccc(N3CCOCC3)c(C(=O)OC(C)(C)C)c2)cc1C(=O)N[C@H]1[C@@H](C(=O)Nc2ccc(F)c(C(F)(F)F)c2)[C@H]2CC[C@@H]1/C2=C\C1CC1    7.44
COc1ccc(C2=NO[C@H]3C[C@H](CO)CN23)cc1C(=O)N[C@H]1[C@@H](C(=O)Nc2ccc(F)c(C(F)(F)F)c2)[C@H]2CC[C@@H]1/C2=C\C(C)C    8.43

Query COc1ccc(-c2cc(C3=NOC(CO)C3)ccc2F)cc1C(=O)N[C@H]1[C@@H](C(=O)Nc2ccc(F)c(C(F)(F)F)c2)[C@H]2CC[C@@H]1/C2=C\C1CC1 (stereo partly shown) [compound 905] yields pEC50 of 8.15

Please fill in: pEC50 reported for COc1ccc(-c2ccn(CC(=O)O)n2)cc1C(=O)N[C@@H]1C2CCC(/C2=C/C(F)(F)F)[C@@H]1C(=O)Nc1ccc(F)c(C(F)(F)F)c1 (stereo partly shown) = 6.41

Notebook: COc1ccc(C2=NOC3COCC23)cc1C(=O)N[C@H]1[C@@H](C(=O)Nc2ccc(F)c(C(F)(F)F)c2)[C@H]2CC[C@@H]1/C2=C\c1csc(C)n1 (stereo partly shown) , pEC50 read as 8.31

---

Listed here: items and their measured EC50.
# TARGET_DESC: human RXFP1 (Homo sapiens, UniProt Q9HBX9)
# Construct: expressed in transfected cells
# ASSAY_DETAILS: RXFP1 cAMP assay (hRXFP1 HEK293 cAMP assay, HTRF)
# Assay type: cell-based
# STUDY_CONDITIONS: HEK293 cells stably expressing human RXFP1, 30 min at room temperature, read-out: cAMP hRXFP1 HEK293 Assay EC50
The answer is to be given in nM; state only the numeric part.

Consider the reported EC50 for these molecules:
COc1cc(C(=O)N[C@H]2[C@@H](C(=O)Nc3ccc(F)c(C(F)(F)F)c3)[C@H]3CC[C@@H]2/C3=C\C2CC2)cc(C2=NOC3COCC23)c1 (single isomer, unassigned) [compound 602]    110
COc1ccc(C2=NOC(C(C)O)C2)cc1C(=O)N[C@H]1[C@@H](C(=O)Nc2ccc(F)c(C(F)(F)F)c2)[C@H]2CC[C@@H]1/C2=C\C1CC1 (single isomer, unassigned) [compound 554]    37.6

Now let's try a different one.
Note to self: EC50 of COc1cc(F)c(F)cc1C(=O)N[C@@H]1C2CCC(/C2=C/c2cc(C)cc(C)c2)[C@@H]1C(=O)Nc1ccc(F)c(C(F)(F)F)c1 (stereo partly drawn) with human RXFP1 (Homo sapiens, UniProt Q9HBX9) was 920

---

# TARGET_DESC: human RXFP1 (Homo sapiens)
# Construct: expressed in transfected cells
# Sequence (Q9HBX9 1-757): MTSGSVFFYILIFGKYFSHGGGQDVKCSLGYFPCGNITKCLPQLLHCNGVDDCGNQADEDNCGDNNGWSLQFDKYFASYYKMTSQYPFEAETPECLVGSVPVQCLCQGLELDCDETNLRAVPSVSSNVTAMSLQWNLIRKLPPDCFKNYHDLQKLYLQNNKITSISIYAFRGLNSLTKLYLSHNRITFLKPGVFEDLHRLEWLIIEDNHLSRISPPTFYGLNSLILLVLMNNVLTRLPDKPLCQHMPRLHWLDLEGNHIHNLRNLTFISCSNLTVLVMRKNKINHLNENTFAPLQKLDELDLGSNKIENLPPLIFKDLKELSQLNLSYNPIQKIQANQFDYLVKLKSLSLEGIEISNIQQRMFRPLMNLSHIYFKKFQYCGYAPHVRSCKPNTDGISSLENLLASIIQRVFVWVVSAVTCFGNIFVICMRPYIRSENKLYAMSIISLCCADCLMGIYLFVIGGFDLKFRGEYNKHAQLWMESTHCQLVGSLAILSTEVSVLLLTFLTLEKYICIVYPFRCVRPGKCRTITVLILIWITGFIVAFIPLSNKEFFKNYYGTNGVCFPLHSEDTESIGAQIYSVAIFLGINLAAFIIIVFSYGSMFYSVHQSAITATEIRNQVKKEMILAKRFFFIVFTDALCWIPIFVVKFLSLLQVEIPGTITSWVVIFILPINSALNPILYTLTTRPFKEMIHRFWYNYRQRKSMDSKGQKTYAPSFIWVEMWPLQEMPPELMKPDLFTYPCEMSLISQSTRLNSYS
# ASSAY_DETAILS: RXFP1 cAMP assay (hRXFP1 HEK293 cAMP assay, HTRF)
# Type: cell-based
# STUDY_CONDITIONS: HEK293 cells stably expressing human RXFP1, 30 min at room temperature, read-out: cAMP hRXFP1 HEK293 Assay EC50
REPORTED_ENDPOINT: pEC50
The value called pEC50 is obtained by taking minus log10 of the concentration in mol/L.

Worked cases, pEC50 given:
COc1ccc(C2=NOC3CC(C(O)C(F)(F)F)CC23)cc1C(=O)N[C@H]1[C@@H](C(=O)Nc2ccc(F)c(C(F)(F)F)c2)[C@H]2CC[C@@H]1/C2=C\C1CC1 (some centres unmarked) [compound 853]    8.44
COc1ccc(-c2cc(C3=NOC(CO)C3)ccc2F)cc1C(=O)N[C@H]1[C@@H](C(=O)Nc2ccc(F)c(C(F)(F)F)c2)[C@H]2CC[C@@H]1/C2=C\C1CC1 (some centres unmarked) [compound 906]    8.17
COc1cc(F)c(F)cc1C(=O)N[C@@H]1C2CCC(/C2=C/c2cccc(Cl)c2)[C@@H]1C(=O)Nc1ccc(F)c(C(F)(F)F)c1 (some centres unmarked)    6.92
COc1ccc(-c2cccnc2F)cc1C(=O)N[C@H]1[C@@H](C(=O)Nc2ccc(F)c(C(F)(F)F)c2)[C@H]2CC[C@@H]1/C2=C\c1ccccc1    7.39

Noted pEC50 for COc1ccc(C2=NOC3CS(=O)(=O)CC23)cc1C(=O)N[C@@H]1C2CCC(/C2=C/C2CC2)[C@@H]1C(=O)Nc1ccc(F)c(C(F)(F)F)c1 (mixture of isomers) [Example 442] , tested on human RXFP1 (Homo sapiens): 7.60

Test item COc1ccc(C2=NOC(C)(CO)C2)cc1C(=O)N[C@H]1[C@@H](C(=O)Nc2ccc(F)c(C(F)(F)F)c2)[C@H]2CC[C@@H]1C2=CC1CC1 (single isomer, unassigned) [compound 480] ; human RXFP1 (Homo sapiens); reported pEC50 was 8.17

Field pEC50 (system: human RXFP1 (Homo sapiens)) for entry COc1ccc(C2=NOC3CC(CO)CC23)cc1C(=O)N[C@H]1[C@@H](C(=O)N[C@H](C)C2(C)CC2)[C@H]2CC[C@@H]1/C2=C\c1csc(C(F)F)n1 (some centres unmarked) = 8.77

Measured pEC50 (human RXFP1 (Homo sapiens)), entry COc1ccc(-c2cc(C(C)(C)O)on2)cc1C(=O)N[C@@H]1C2CCC(/C2=C/C2CC2)[C@@H]1C(=O)Nc1ccc(F)c(C(F)(F)F)c1 (some centres unmarked) : 7.72

---

# TARGET_DESC: human RXFP1 (Homo sapiens)
# Construct: expressed in transfected cells
# Sequence (Q9HBX9 1-757): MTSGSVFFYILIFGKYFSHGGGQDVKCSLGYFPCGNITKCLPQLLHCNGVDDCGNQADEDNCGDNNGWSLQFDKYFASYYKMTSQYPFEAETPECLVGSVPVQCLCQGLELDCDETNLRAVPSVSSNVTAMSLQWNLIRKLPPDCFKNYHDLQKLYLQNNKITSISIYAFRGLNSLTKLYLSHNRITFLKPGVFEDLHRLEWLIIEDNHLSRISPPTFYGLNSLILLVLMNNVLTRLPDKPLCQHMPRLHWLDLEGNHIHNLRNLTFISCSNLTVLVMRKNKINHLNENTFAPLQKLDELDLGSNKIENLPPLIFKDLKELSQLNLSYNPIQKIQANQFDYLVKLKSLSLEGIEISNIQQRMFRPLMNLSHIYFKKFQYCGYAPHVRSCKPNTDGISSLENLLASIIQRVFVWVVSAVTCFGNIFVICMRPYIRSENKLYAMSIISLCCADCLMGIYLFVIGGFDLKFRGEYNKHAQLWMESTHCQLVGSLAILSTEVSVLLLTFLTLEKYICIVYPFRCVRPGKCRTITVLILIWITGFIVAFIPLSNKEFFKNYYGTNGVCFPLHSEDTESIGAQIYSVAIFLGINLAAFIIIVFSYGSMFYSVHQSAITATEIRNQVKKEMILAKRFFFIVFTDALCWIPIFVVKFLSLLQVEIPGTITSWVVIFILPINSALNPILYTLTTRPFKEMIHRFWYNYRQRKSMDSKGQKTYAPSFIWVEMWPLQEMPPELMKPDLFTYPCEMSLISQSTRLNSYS
# ASSAY_DETAILS: RXFP1 cAMP assay (hRXFP1 HEK293 cAMP assay, HTRF)
# Type: cell-based
# STUDY_CONDITIONS: HEK293 cells stably expressing human RXFP1, 30 min at room temperature, read-out: cAMP hRXFP1 HEK293 Assay EC50
REPORTED_ENDPOINT: pEC50
Just the number, please; pEC50 means minus log10 of the concentration in mol/L.

COc1ccc(-c2cc(C(OC(=O)NCCC(F)(F)F)C(F)(F)F)ccc2F)cc1C(=O)N[C@@H]1C2CCC(/C2=C/C2CC2)[C@@H]1C(=O)Nc1ccc(F)c(C(F)(F)F)c1 (some centres unmarked)    8.70
COc1ccc(-n2cc(C(NC(=O)C3CCOCC3)C(=O)O)cn2)cc1C(=O)N[C@@H]1C2CCC(/C2=C/C(F)(F)F)[C@@H]1C(=O)Nc1ccc(F)c(C(F)(F)F)c1 (some centres unmarked)    7.21
COc1ccc(C2=NOC(C3(O)CCCCC3)C2)cc1C(=O)N[C@H]1[C@@H](C(=O)Nc2ccc(F)c(C(F)(F)F)c2)[C@H]2CC[C@@H]1/C2=C\C1CC1 (single isomer, unassigned) [compound 615]    6.86
COc1ccc(-c2cc(C(CC(F)(F)F)NC(=O)C3CCOCC3)ccc2F)cc1C(=O)N[C@H]1[C@@H](C(=O)Nc2ccc(F)c(C(F)(F)F)c2)[C@H]2CC[C@@H]1/C2=C\C1CCCC1 (some centres unmarked)    8.72

Now take the following molecule into account.
Lab note: measured pEC50 of COc1ccc(-c2cc(C(CO)NC(C)=O)ccc2F)cc1C(=O)N[C@@H]1C2CCC(/C2=C/C2CC2)[C@@H]1C(=O)Nc1ccc(F)c(C(F)(F)F)c1 (some centres unmarked) was 8.30
